Numbers sourced from the supplement of paper PMC10567573.

B1: KLHL14 (parent)
chain: WLYCYDPVMDVWARKQDMNTKRAI

Variants of: B1
Assay: protein stability index of a GFP-peptide fusion (GPS, HEK-293T) (PSI 1-6); higher = more stable;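 further: lentivirally expressed fusions sorted by FACS into six bins by GFP to DsRed ratio, PSI derived from sequencing read proportions per bin multiplied by bin number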
Conditions: c terminus: a fixed tail appended
MEASURED METRIC: protein stability index

[[record]]
sequence_variant = "W12T"
assay_value = 2.11

[[record]]
sequence_variant = "C4Y"
assay_value = 2.13

[[record]]
sequence_variant = "C4K"
assay_value = 2.04

[[record]]
sequence_variant = "W12D"
assay_value = 2.23

